Test system: HSkMC (human skeletal muscle cells)
assay summary: cytotoxicity call (relative viability < 0.9)
condition description: 10 µM
About 1,500 (3.8%) of roughly 39,000 compounds were called active. The entries come from a sample that favours actives as a whole.
Classes used: 1 = active, 0 = inactive

- COc1ccc(CN(C)C[C@@H]2Oc3ccc(NC(=O)Nc4cccc5ccccc45)cc3CC(=O)N([C@H](C)CO)C[C@H]2C)cc1: 0
- COc1ccc(CN(C)C[C@H]2Oc3ccc(NC(=O)Nc4cccc5ccccc45)cc3CC(=O)N([C@@H](C)CO)C[C@H]2C)cc1: 0
- Cc1noc(C)c1NC(=O)Nc1ccc2c(c1)C(=O)N([C@@H](C)CO)C[C@@H](C)[C@@H](CN(C)C(=O)C1CCCCC1)OCCCC[C@@H](C)O2: 0
- C[C@H](CO)N1C[C@H](C)[C@H](CN(C)Cc2ccncc2)Oc2ccc(NC(=O)Nc3cccc4ccccc34)cc2CC1=O: 1
